Exercise: state measured Population Pyknosed Nuclei (%) for each of the compounds provided.
Test system: U2OS
Experiment: Multiplex assay against U2OS
Assay type: toxicity, cell-based
Details: human, 48 h, 10 µM, compound concentration 10 uM, replicate 1
Numbers only, in %.

- compound: "COc1cc(-n2cnc3cc(-c4ccc(Cl)cc4)sc3c2=O)ccc1OCCN1CCCC1"
  tested-on: "U2OS"
  result-units: "%"
  Population Pyknosed Nuclei (%): 59
- compound: "OC1(c2ccc(Cl)cc2)CCN(Cc2c[nH]c3ccccc23)CC1"
  tested-on: "U2OS"
  result-units: "%"
  Population Pyknosed Nuclei (%): 56
- compound: "CN(C)C(=O)/C(C#N)=C/c1ccc(-c2nc3cnc4[nH]ccc4c3n2C2CCCCC2)o1"
  tested-on: "U2OS"
  result-units: "%"
  Population Pyknosed Nuclei (%): 25
- compound: "C[C@@H](NCCCc1cccc(C(F)(F)F)c1)c1cccc2ccccc12.Cl [CINACALCET HYDROCHLORIDE]"
  tested-on: "U2OS"
  result-units: "%"
  Population Pyknosed Nuclei (%): 39

I would be grateful if you could provide Population Pyknosed Nuclei (%) for each of the following entries.
1. COc1cccc([C@@H](C)NCCCc2ccccc2Cl)c1.Cl [TECALCET HYDROCHLORIDE]
2. CN(C)C(=O)N[C@H]1CC[C@H](CCN2CCN(c3cccc(Cl)c3Cl)CC2)CC1.Cl [CARIPRAZINE HYDROCHLORIDE]

OUT:
1. 27
2. 27

I would be grateful if you could provide Population Pyknosed Nuclei (%) for each of the following entries.
1. C=CC(=O)Nc1cccc(C(=O)Nc2ccc(Nc3cc(-c4[nH]c(SC)nc4C)ccn3)cc2)c1
2. CC[C@H](C)C(=O)O[C@H]1C[C@@H](C)C=C2C=C[C@H](C)[C@H](CC[C@@H]3C[C@@H](O)CC(=O)O3)[C@H]21

OUT:
8
8

---

Test system: HEK-293T
Experiment: Multiplex assay against HEK293T
Assay type: toxicity, cell-based
Settings: human, 12 h, 1 µM, compound concentration 1 uM, replicate 2
quantity-measured: Total Cell Count

Would you please look over these solved cases?
- compound: "Cc1[nH]c(/C=C2\\C(=O)Nc3ccc(S(=O)(=O)N(C)c4cccc(Cl)c4)cc32)c(C)c1C(=O)N1CCN(C)CC1"
  quantity-measured: "Total Cell Count"
  reported-value: 243
- compound: "Cc1cc(C)cc(-c2cnc3cc(Cl)c(-c4cccc(O)c4)cc3c2OCCCN)c1"
  quantity-measured: "Total Cell Count"
  reported-value: 251
- compound: "CNc1nc(NCc2ccc(NS(C)(=O)=O)cc2Cl)cc(-c2ccccn2)n1"
  quantity-measured: "Total Cell Count"
  reported-value: 273

Turning to the following compound.
IN: For the compound Cc1nc(-c2cn3c(n2)-c2ccc(-c4cnn(C(C)(C)C(N)=O)c4)cc2OCC3)n(C(C)C)n1 [TASELISIB] , report Total Cell Count.
OUT: 803

---

Exercise: state measured Population Membrane Permeable-Phenotype (%) for each of the compounds provided.
System: Fibroblast
Assay: Multiplex assay against human fibroblast
Format: toxicity, cell-based
Settings: 48 h, 1 µM, compound concentration 1 uM, replicate 2

- compound: "O=C1NCN(c2ccccc2)C12CCN(CCCOc1ccc(F)cc1)CC2 [SPIRAMIDE]"
  reported-value: "13%"
- compound: "Cl.N#Cc1ccc2[nH]cc(CCCCN3CCN(c4ccc5oc(C(N)=O)cc5c4)CC3)c2c1 [VILAZODONE HYDROCHLORIDE]"
  reported-value: "7%"
- compound: "C=CC(=O)Nc1cccc(C(=O)Nc2ccc(Nc3cc(-c4[nH]c(SC)nc4C)ccn3)cc2)c1"
  reported-value: "28%"
- compound: "CC(C)(O)CNc1ncc(-c2ccnc(Nc3ccnc(Cl)c3)n2)c(CC2CC2)n1"
  reported-value: "22%"
- compound: "C[C@@H](NCCCc1cccc(C(F)(F)F)c1)c1cccc2ccccc12.Cl [CINACALCET HYDROCHLORIDE]"
  reported-value: "15%"
- compound: "Cc1csc2c(N[C@@H](C)CN3CCN(S(=O)(=O)c4ccc(Cl)c(Cl)c4)CC3)ncnc12"
  reported-value: "9%"
- compound: "COc1ncc(-c2ccc3nccc(-c4ccnnc4)c3c2)cc1NS(=O)(=O)c1ccc(F)cc1F"
  reported-value: "35%"

Turning to the following compound.
IN: Fill in Population Membrane Permeable-Phenotype (%) for Cn1cc(-c2[nH]c3cc(NC(=O)[C@H](N)C4CCCCC4)cc4c3c2C=NNC4=O)cn1 tested with Fibroblast.
OUT: 20%
